- TARGET_DESC: Homeodomain-interacting protein kinase 4 (Homo sapiens) (UniProt Q8NE63);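 further: values are mean percent inhibition of HIPK4 from the GSK PKIS kinase screen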
- Sequence (Q8NE63 whole entry): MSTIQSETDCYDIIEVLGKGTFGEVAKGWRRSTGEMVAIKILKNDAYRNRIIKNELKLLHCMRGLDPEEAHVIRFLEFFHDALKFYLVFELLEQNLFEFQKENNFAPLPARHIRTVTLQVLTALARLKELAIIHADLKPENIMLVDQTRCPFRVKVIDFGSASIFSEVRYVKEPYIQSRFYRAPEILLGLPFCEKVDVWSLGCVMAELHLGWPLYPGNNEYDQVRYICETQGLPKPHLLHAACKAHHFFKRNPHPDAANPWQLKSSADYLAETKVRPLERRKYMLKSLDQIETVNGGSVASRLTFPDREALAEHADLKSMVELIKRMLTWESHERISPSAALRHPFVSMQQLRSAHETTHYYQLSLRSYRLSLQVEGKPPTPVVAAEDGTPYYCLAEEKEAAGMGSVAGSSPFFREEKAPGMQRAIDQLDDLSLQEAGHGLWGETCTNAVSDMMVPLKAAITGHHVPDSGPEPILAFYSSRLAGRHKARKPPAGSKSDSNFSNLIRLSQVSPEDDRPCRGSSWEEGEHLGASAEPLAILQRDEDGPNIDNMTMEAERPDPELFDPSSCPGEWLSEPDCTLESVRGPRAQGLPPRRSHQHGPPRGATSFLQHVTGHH
- TEST_CONTEXT: at 1 µM
Cut-off 7% on inhibition, inclusive. At or above means Y; below means N.

COMPOUND: CC1=C(C(=O)Nc2ccc3[nH]ncc3c2)C(c2ccc(F)cc2)N=C(c2ccc(C(F)(F)F)nc2)N1 (centres undefined)
ASSIGNED_CLASS: N
--
COMPOUND: COc1cc2c(cc1Nc1nc(Nc3cccc(F)c3C(N)=O)c3cc[nH]c3n1)N(C(=O)CN1CCN(C(C)C)CC1)CC2
ASSIGNED_CLASS: Y
--
COMPOUND: CN(c1ccc(NC(=O)NCCN2CCOCC2)cc1)c1ccnc(Nc2ccc(CS(C)(=O)=O)cc2)n1
ASSIGNED_CLASS: Y
--
COMPOUND: OCCCNc1nccc(-c2c(-c3ccc(F)cc3)nn3cc(C(F)(F)F)ccc23)n1
ASSIGNED_CLASS: N
--
COMPOUND: COc1ccccc1-c1cc(/C=C2\C(=O)Nc3ncc(Br)cc32)cc(Br)c1O
ASSIGNED_CLASS: Y
--
COMPOUND: CC(C)c1ccc(-c2cc(-c3c[nH]nc3-c3ccccn3)ccn2)cc1
ASSIGNED_CLASS: N
--
COMPOUND: CS(=O)(=O)CCNCc1ccc(-c2ccc3ncnc(Nc4ccc(OCc5ccccc5)cc4)c3c2)o1
ASSIGNED_CLASS: N
--
COMPOUND: COc1cc(N2CCN(C(C)C)CC2)ccc1Nc1nc(Nc2cccc(F)c2C(=O)O)c2cc[nH]c2n1
ASSIGNED_CLASS: Y
